Read-out record for Human monoamine oxidase A (Homo sapiens, UniProt P21397): pIC50
pIC50: −log10 of the molar value.
Measured Property: pIC50

compound_structure_string=CC(=O)Oc1ccc(CCOC(=O)C2CCN(Cc3ccccc3)CC2)cc1 measured_property=pIC50 recorded_measurement=4.24
compound_structure_string=COc1cc(CCOC(=O)C2CCN(Cc3ccccc3)CC2)ccc1O measured_property=pIC50 recorded_measurement=4.63
compound_structure_string=O=C(OCCc1ccc(O)c(O)c1)C1CCN(Cc2ccccc2)CC1 measured_property=pIC50 recorded_measurement=4.27
compound_structure_string=O=C(OCCc1ccc(O)cc1)C1CCN(Cc2ccccc2)CC1 measured_property=pIC50 recorded_measurement=4.84
compound_structure_string=O=C(OCCc1cc(O)c(O)cc1[N+](=O)[O-])C1CCN(Cc2ccccc2)CC1 measured_property=pIC50 recorded_measurement=3.49
compound_structure_string=COc1cc(CCOC(=O)C2CCN(Cc3ccccc3)CC2)ccc1OC(C)=O measured_property=pIC50 recorded_measurement=4.35
compound_structure_string=CC(=O)Oc1ccc(CCOC(=O)C2CCN(Cc3ccccc3)CC2)cc1OC(C)=O measured_property=pIC50 recorded_measurement=4.29

----------
target: UniProt P80457
Sequence (P80457 whole entry): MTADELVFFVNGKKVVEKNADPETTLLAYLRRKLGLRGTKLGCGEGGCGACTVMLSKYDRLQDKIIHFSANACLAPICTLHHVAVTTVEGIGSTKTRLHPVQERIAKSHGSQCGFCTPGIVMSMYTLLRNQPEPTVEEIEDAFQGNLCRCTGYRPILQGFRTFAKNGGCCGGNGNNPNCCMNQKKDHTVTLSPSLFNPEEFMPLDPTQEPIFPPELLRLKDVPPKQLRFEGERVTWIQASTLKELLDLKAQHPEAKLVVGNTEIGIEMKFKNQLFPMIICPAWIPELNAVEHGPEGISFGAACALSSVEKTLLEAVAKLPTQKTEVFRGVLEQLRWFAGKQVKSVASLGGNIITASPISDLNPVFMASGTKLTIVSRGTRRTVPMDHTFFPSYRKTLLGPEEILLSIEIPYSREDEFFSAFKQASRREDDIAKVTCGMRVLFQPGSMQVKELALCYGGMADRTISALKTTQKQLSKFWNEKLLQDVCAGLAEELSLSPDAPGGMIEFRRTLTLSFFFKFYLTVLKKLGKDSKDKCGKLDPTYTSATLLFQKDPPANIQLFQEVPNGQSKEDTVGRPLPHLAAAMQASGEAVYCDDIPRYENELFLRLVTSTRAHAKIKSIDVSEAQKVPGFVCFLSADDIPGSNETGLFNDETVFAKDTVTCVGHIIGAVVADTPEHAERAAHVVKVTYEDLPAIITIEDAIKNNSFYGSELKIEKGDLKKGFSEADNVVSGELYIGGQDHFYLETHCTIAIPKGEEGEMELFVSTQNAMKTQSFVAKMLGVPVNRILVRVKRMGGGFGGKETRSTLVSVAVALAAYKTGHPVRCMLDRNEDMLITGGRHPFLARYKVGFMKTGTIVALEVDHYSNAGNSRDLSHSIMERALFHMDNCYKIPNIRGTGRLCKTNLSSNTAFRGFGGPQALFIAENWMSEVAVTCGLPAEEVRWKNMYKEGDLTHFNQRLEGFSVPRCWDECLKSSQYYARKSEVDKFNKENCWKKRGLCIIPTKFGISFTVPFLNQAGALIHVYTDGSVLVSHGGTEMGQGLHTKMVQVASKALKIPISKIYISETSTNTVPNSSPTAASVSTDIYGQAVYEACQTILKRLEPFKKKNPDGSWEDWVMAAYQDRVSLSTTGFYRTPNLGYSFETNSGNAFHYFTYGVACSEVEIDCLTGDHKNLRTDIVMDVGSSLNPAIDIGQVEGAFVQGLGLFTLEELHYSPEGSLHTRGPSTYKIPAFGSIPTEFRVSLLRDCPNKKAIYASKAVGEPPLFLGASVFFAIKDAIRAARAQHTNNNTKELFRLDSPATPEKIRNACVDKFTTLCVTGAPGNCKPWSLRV
Measured Property: Ki (µM)

compound_structure_string=O=C(OCCc1cc(O)c(O)cc1[N+](=O)[O-])C1CCN(Cc2ccccc2)CC1 recorded_measurement=63

----------
molecular target: Human monoamine oxidase A (Homo sapiens, UniProt P21397); construct: purchased Sigma-Aldrich (Milan, Italy); assay: Kinetic analysis of MAO-A inhibition (KM, Vmax, apparent Ki); type: biochemical; settings: uncompetitive; apparent Ki, mean ± SE (n); read-out: Ki, average value from Vmax or KM decrease (MAO-A)
Sequence (P21397 whole entry): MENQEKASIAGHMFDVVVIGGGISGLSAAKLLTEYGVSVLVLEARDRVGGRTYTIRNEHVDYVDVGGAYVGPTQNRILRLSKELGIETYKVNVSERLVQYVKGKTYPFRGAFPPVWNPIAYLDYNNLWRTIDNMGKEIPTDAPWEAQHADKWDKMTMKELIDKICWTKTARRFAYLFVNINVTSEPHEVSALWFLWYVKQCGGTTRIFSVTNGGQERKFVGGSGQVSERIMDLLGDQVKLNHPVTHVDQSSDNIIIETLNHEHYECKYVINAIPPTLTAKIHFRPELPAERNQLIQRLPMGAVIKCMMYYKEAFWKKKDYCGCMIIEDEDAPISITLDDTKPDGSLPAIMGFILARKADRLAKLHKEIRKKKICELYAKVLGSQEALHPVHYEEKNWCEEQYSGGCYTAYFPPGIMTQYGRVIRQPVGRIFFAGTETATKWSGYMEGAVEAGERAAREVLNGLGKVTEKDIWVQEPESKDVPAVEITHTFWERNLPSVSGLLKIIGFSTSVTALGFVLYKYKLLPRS
Measured Property: Ki

molecule="COc1cc(CCOC(=O)C2CCN(Cc3ccccc3)CC2)ccc1OC(C)=O [HT3a]" measured_target="Human monoamine oxidase A (Homo sapiens, UniProt P21397)" recorded_measurement="80.5 µM"

----------
biological target: Human monoamine oxidase B (Homo sapiens, UniProt P27338); construct: purchased Sigma-Aldrich (Milan, Italy); assay: Kinetic analysis of MAO-B inhibition (KM, Vmax, apparent Ki); type: biochemical; conditions: kynuramine 25–150 µM, two fixed inhibitor concentrations
Sequence (P27338 whole entry): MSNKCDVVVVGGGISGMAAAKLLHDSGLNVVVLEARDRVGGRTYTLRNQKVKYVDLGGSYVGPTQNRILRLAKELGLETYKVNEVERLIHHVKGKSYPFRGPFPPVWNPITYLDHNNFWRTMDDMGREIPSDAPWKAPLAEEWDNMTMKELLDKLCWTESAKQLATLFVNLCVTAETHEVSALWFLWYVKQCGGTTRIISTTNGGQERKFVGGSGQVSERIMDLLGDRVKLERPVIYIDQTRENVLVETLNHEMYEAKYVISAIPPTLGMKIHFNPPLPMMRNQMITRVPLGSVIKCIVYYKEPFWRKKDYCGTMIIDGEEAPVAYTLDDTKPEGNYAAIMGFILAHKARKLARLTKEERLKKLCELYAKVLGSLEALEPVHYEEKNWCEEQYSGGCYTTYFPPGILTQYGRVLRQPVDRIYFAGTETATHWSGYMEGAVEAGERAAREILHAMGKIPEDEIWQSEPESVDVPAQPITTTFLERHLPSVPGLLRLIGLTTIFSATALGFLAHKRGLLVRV
Measured Property: Inhibition Type (MAO-B)

molecule="COc1cc2c(cc1OC)C(=O)C(CC1CCN(Cc3ccccc3)CC1)C2 (stereo not drawn) [Donepezil, donepezil, reference compound]" recorded_measurement=mixed

----------
# Lookup of reported Ki keyed by entry
target: Human monoamine oxidase B (Homo sapiens, UniProt P27338); construct: purchased Sigma-Aldrich (Milan, Italy); assay: Kinetic analysis of MAO-B inhibition (KM, Vmax, apparent Ki); assay type: biochemical; conditions: apparent Ki, mean ± SE (n); read-out: Ki, Calculated from KM Increase (MAO-B)
Measured Property: Ki (µM)

compound="CC(=O)Oc1ccc(CCOC(=O)C2CCN(Cc3ccccc3)CC2)cc1OC(C)=O [HT1a]" unit_info=µM recorded_measurement=37.9
compound="COc1cc(CCOC(=O)C2CCN(Cc3ccccc3)CC2)ccc1OC(C)=O [HT3a]" unit_info=µM recorded_measurement=190
compound="CC(=O)Oc1ccc(CCOC(=O)C2CCN(Cc3ccccc3)CC2)cc1 [HT4a]" unit_info=µM recorded_measurement=20.7
compound="COc1cc(CCOC(=O)C2CCN(Cc3ccccc3)CC2)ccc1O [HT3]" unit_info=µM recorded_measurement=115
compound="O=C(OCCc1ccc(O)c(O)c1)C1CCN(Cc2ccccc2)CC1 [HT1]" unit_info=µM recorded_measurement=163
